# Test system: PPARg:RXRa 30nM:10nM, anti-RXR (NR concentration 30 nM, RXRa partner concentration 10 nM)
# assaySummary: PBM binding z-score (relative to random genomic background probes); higher = stronger binding; sequences stand for … in GC…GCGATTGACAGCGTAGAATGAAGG
Binning rule for recorded PBM binding z-score: class 1 = under 2, class 2 = from 2 up to 4, class 3 = 4 and over

query: Class? Entry: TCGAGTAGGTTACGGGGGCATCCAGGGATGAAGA
result: class 2

query: Bin this entry: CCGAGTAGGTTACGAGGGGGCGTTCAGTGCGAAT
result: class 1

query: Hello team, could you let me know which band the following sequence falls into: TCTGCTAGGTCAACGATGGTCAGCGAATCTGCTA
result: class 1

query: Class label required: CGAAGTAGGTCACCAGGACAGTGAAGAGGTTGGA
result: class 3

query: Which of the defined bands does the recorded PBM binding z-score of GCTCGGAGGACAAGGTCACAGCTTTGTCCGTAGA sit within?
result: class 1

query: // return the class label for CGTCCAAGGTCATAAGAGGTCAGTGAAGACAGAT
result: class 2

query: Sort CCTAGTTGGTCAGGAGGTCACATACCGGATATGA into one of the categories.
result: class 1

query: Which PBM binding z-score category applies to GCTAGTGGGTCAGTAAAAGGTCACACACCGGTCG here?
result: class 2

query: Tag the class for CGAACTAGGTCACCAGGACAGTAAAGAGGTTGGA
result: class 3

query: Given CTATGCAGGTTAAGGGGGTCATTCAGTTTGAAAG , name the class its PBM binding z-score places it in.
result: class 2

query: Textbook exercise: identify the category of the sequence given here, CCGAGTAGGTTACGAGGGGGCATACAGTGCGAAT , according to its measured value.
result: class 1

query: Kindly state the category for this sequence: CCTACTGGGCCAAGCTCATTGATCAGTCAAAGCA
result: class 1

query: Where would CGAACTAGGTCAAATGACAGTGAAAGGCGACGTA land among the classes by reported PBM binding z-score?
result: class 3

query: For the record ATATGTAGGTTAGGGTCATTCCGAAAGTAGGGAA , report the class its PBM binding z-score corresponds to.
result: class 3

query: Exercise: read the entry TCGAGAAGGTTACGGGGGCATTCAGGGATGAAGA and state which class it falls under.
result: class 3

query: Classify this sequence: CAGACTAGGTCAAAGGTCAAAGTCGAGCCAACCA
result: class 3
